- TESTED SYSTEM: 5-hydroxytryptamine receptor 2B (Homo sapiens)
- Sequence (P41595 whole entry): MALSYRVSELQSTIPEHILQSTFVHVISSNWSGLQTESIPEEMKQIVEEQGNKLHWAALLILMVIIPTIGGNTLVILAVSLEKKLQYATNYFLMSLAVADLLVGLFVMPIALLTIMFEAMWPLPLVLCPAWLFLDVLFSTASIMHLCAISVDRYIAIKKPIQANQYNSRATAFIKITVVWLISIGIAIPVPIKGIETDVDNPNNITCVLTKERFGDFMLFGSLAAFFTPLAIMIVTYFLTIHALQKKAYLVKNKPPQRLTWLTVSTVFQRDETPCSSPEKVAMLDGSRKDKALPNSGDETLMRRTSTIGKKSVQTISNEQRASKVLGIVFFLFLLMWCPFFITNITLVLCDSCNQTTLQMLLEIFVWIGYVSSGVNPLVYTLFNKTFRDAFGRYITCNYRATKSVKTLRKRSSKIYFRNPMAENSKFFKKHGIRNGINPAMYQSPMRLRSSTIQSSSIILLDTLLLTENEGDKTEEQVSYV
- PROCEDURE TEXT: Displacement of [3H]LSD from human recombinant 5-HT2B receptor expressed in CHO cells by radioligand completion assay relative to control
QUANTITY: Ki (nM)

COc1cc(C[C@@H](C)N)c(OC)cc1I : 2.2

Where do these numbers come from? They come from BindingDB's records for doi:10.1021/acs.jmedchem.1c00726.
